Numbers sourced from paper PMC8781472.

- protocol-description: In vivo pharmacokinetic experiments in rats
- Design: species or system Sprague−Dawley rats
- particulars: male, Sprague-Dawley, rat; SD rats, single oral dose equivalent to 5 mg/kg PAL, plasma PAL
metric: half-life (h)

INSERT INTO results (smiles_record, result_units, observed_result) VALUES
  ('CC(=O)c1c(C)c2cnc(Nc3ccc(N4CCNCC4)cn3)nc2n(C2CCCC2)c1=O', 'h', 19.9);

###

- protocol-description: In vitro cytotoxicity MTT assay
- Type: cell-based, human
- particulars: human, normal HUVEC cell line
metric: IC50 at 48 h

INSERT INTO measurements (smiles_record, observed_result) VALUES
  ('Oc1cccc(O)c1', '> 100 µM'),
  ('Cc1cc(O)cc(O)c1', '> 100 µM'),
  ('CC(=O)c1c(C)c2cnc(Nc3ccc(N4CCNCC4)cn3)nc2n(C2CCCC2)c1=O', '2.4 µM');
